Test: Edaravone solubility, slurry/shake-flask method with spectrophotometric determination at 243 nm
Type: physicochemical
Conditions: 35 °C, aqueous with cosolvent or surfactant or cyclodextrin, thermodynamic from solid, water + GLE (ChCl:GL 1:2), x*GLE = 0.2, 308.15 K; read-out: cE solubility concentration
measured.property: solubility at 24 h (mg/mL)
Kindly provide the numeric value in mg/mL only, without the unit symbol.

Problem: Recorded solubility at 24 h for CC1=NN(c2ccccc2)C(=O)C1 , please?
Solution: 201

----------
Test: Edaravone solubility, slurry/shake-flask method with spectrophotometric determination at 243 nm
Format: physicochemical
Conditions: 40 °C, aqueous with cosolvent or surfactant or cyclodextrin, thermodynamic from solid, water + GLE (ChCl:GL 1:2), x*GLE = 0.8, 313.15 K; read-out: cE solubility concentration
measured.property: solubility at 24 h
Quote the value and follow it with the unit of measurement.

Problem: Recorded solubility at 24 h for CC1=NN(c2ccccc2)C(=O)C1 [edaravone, 5-methyl-2-phenyl-4H-pyrazol-3-one] , please?
Solution: 602 mg/mL

----------
Experiment: Edaravone solubility, slurry/shake-flask method with spectrophotometric determination at 243 nm
Format: physicochemical
Settings: 25 °C, aqueous with cosolvent or surfactant or cyclodextrin, thermodynamic from solid, water + ETA (ChCl:EG 1:2), x*ETA = 0.2, 298.15 K; read-out: cE solubility concentration
measured.property: solubility at 24 h (mg/mL)
Kindly provide the numeric value in mg/mL only, without the unit symbol.

Problem: Recorded solubility at 24 h for CC1=NN(c2ccccc2)C(=O)C1 [edaravone, 5-methyl-2-phenyl-4H-pyrazol-3-one] , please?
Solution: 221

----------
Experiment: Edaravone solubility, slurry/shake-flask method with spectrophotometric determination at 243 nm
Format: physicochemical
Conditions: 35 °C, organic solvent or mixture, thermodynamic from solid, neat DES choline chloride + glycerol (GLE) 1:4 molar ratio, 308.15 K; read-out: cE solubility concentration
measured.property: solubility at 24 h (mg/mL)
Kindly provide the numeric value in mg/mL only, without the unit symbol.

Problem: Recorded solubility at 24 h for CC1=NN(c2ccccc2)C(=O)C1 , please?
Solution: 336

----------
Experiment: Edaravone solubility, slurry/shake-flask method with spectrophotometric determination at 243 nm
Format: physicochemical
Conditions: 35 °C, organic solvent or mixture, thermodynamic from solid, neat DES choline chloride + glycerol (GLE) 1:1 molar ratio, 308.15 K; read-out: cE solubility concentration
measured.property: solubility at 24 h (mg/mL)
Kindly provide the numeric value in mg/mL only, without the unit symbol.

Problem: Recorded solubility at 24 h for CC1=NN(c2ccccc2)C(=O)C1 , please?
Solution: 274

----------
Assay: Edaravone solubility, slurry/shake-flask method with spectrophotometric determination at 243 nm
Format: physicochemical
Details: 40 °C, aqueous with cosolvent or surfactant or cyclodextrin, thermodynamic from solid, water + GLE (ChCl:GL 1:2), x*GLE = 0.2, 313.15 K; read-out: cE solubility concentration
measured.property: solubility at 24 h (mg/mL)
Kindly provide the numeric value in mg/mL only, without the unit symbol.

Problem: Recorded solubility at 24 h for CC1=NN(c2ccccc2)C(=O)C1 , please?
Solution: 252

----------
Assay: Edaravone solubility, slurry/shake-flask method with spectrophotometric determination at 243 nm
Format: physicochemical
Conditions: 35 °C, organic solvent or mixture, thermodynamic from solid, neat DES choline chloride + glycerol (GLE) 1:2 molar ratio (x*GLE = 1.0), 308.15 K; read-out: cE solubility concentration
measured.property: solubility at 24 h (mg/mL)
Kindly provide the numeric value in mg/mL only, without the unit symbol.

Problem: Recorded solubility at 24 h for CC1=NN(c2ccccc2)C(=O)C1 , please?
Solution: 369

----------
Experiment: Edaravone solubility, slurry/shake-flask method with spectrophotometric determination at 243 nm
Format: physicochemical
Conditions: 30 °C, aqueous with cosolvent or surfactant or cyclodextrin, thermodynamic from solid, water + GLE (ChCl:GL 1:2), x*GLE = 0.4, 303.15 K; read-out: cE solubility concentration
measured.property: solubility at 24 h
Quote the value and follow it with the unit of measurement.

Problem: Recorded solubility at 24 h for CC1=NN(c2ccccc2)C(=O)C1 , please?
Solution: 328 mg/mL

----------
Experiment: Edaravone solubility, slurry/shake-flask method with spectrophotometric determination at 243 nm
Format: physicochemical
Details: 35 °C, aqueous with cosolvent or surfactant or cyclodextrin, thermodynamic from solid, water + ETA (ChCl:EG 1:2), x*ETA = 0.2, 308.15 K; read-out: cE solubility concentration
measured.property: solubility at 24 h (mg/mL)
Kindly provide the numeric value in mg/mL only, without the unit symbol.

Problem: Recorded solubility at 24 h for CC1=NN(c2ccccc2)C(=O)C1 , please?
Solution: 331

----------
Test: Edaravone solubility, slurry/shake-flask method with spectrophotometric determination at 243 nm
Assay type: physicochemical
Conditions: 35 °C, aqueous with cosolvent or surfactant or cyclodextrin, thermodynamic from solid, water + GLE (ChCl:GL 1:2), x*GLE = 0.6, 308.15 K; read-out: cE solubility concentration
measured.property: solubility at 24 h (mg/mL)
Kindly provide the numeric value in mg/mL only, without the unit symbol.

Problem: Recorded solubility at 24 h for CC1=NN(c2ccccc2)C(=O)C1 [edaravone, 5-methyl-2-phenyl-4H-pyrazol-3-one] , please?
Solution: 567

----------
Test: Edaravone solubility, slurry/shake-flask method with spectrophotometric determination at 243 nm
Type: physicochemical
Conditions: neat deep eutectic solvent, 35 °C, organic solvent or mixture, thermodynamic from solid, neat DES choline chloride + ethylene glycol (ETA) 1:2 molar ratio (x*ETA = 1.0), 308.15 K; read-out: cE solubility concentration
measured.property: solubility at 24 h (mg/mL)
Kindly provide the numeric value in mg/mL only, without the unit symbol.

Problem: Recorded solubility at 24 h for CC1=NN(c2ccccc2)C(=O)C1 [edaravone, 5-methyl-2-phenyl-4H-pyrazol-3-one] , please?
Solution: 499

----------
Assay: Edaravone solubility, slurry/shake-flask method with spectrophotometric determination at 243 nm
Assay type: physicochemical
Settings: deep eutectic solvent + water binary mixture, 35 °C, aqueous with cosolvent or surfactant or cyclodextrin, thermodynamic from solid, water + ETA (ChCl:EG 1:2), x*ETA = 0.6, 308.15 K; read-out: cE solubility concentration
measured.property: solubility at 24 h (mg/mL)
Kindly provide the numeric value in mg/mL only, without the unit symbol.

Problem: Recorded solubility at 24 h for CC1=NN(c2ccccc2)C(=O)C1 [edaravone, 5-methyl-2-phenyl-4H-pyrazol-3-one] , please?
Solution: 670

----------
Assay: Edaravone solubility, slurry/shake-flask method with spectrophotometric determination at 243 nm
Type: physicochemical
Details: neat deep eutectic solvent, 25 °C, organic solvent or mixture, thermodynamic from solid, neat DES choline chloride + ethylene glycol (ETA) 1:1 molar ratio, 298.15 K; read-out: cE solubility concentration
measured.property: solubility at 24 h (mg/mL)
Kindly provide the numeric value in mg/mL only, without the unit symbol.

Problem: Recorded solubility at 24 h for CC1=NN(c2ccccc2)C(=O)C1 , please?
Solution: 190

----------
Assay: Edaravone solubility, slurry/shake-flask method with spectrophotometric determination at 243 nm
Format: physicochemical
Details: 25 °C, aqueous with cosolvent or surfactant or cyclodextrin, thermodynamic from solid, water + ETA (ChCl:EG 1:2), x*ETA = 0.4, 298.15 K; read-out: cE solubility concentration
measured.property: solubility at 24 h (mg/mL)
Kindly provide the numeric value in mg/mL only, without the unit symbol.

Problem: Recorded solubility at 24 h for CC1=NN(c2ccccc2)C(=O)C1 [edaravone, 5-methyl-2-phenyl-4H-pyrazol-3-one] , please?
Solution: 407

----------
Test: Edaravone solubility, slurry/shake-flask method with spectrophotometric determination at 243 nm
Assay type: physicochemical
Settings: 40 °C, organic solvent or mixture, thermodynamic from solid, neat DES choline chloride + glycerol (GLE) 1:4 molar ratio, 313.15 K; read-out: cE solubility concentration
measured.property: solubility at 24 h (mg/mL)
Kindly provide the numeric value in mg/mL only, without the unit symbol.

Problem: Recorded solubility at 24 h for CC1=NN(c2ccccc2)C(=O)C1 [edaravone, 5-methyl-2-phenyl-4H-pyrazol-3-one] , please?
Solution: 470

----------
Assay: Edaravone solubility, slurry/shake-flask method with spectrophotometric determination at 243 nm
Type: physicochemical
Conditions: neat deep eutectic solvent, 35 °C, organic solvent or mixture, thermodynamic from solid, neat DES choline chloride + ethylene glycol (ETA) 1:1 molar ratio, 308.15 K; read-out: cE solubility concentration
Description: The first step in obtaining a calibration curve was the preparation of a stock solution of edaravone with a concentration of 2.3 mg/mL. This initial solution was successfully diluted in 10 mL volumetric flasks with methanol and the obtained solutions with decreasing concentrations were measured spectrophotometrically. […] The limits of detection (LOD) and quantification (LOQ) were calculated as 5.899∙10^−4 mg/mL and 1.770∙10^−3 mg/mL, respectively. […]
measured.property: solubility at 24 h

Problem: Recorded solubility at 24 h for CC1=NN(c2ccccc2)C(=O)C1 , please?
Solution: 360 mg/mL

----------
Assay: Edaravone solubility, slurry/shake-flask method with spectrophotometric determination at 243 nm
Type: physicochemical
Settings: deep eutectic solvent + water binary mixture, 30 °C, aqueous with cosolvent or surfactant or cyclodextrin, thermodynamic from solid, water + ETA (ChCl:EG 1:2), x*ETA = 0.8, 303.15 K; read-out: cE solubility concentration
measured.property: solubility at 24 h
Quote the value and follow it with the unit of measurement.

Problem: Recorded solubility at 24 h for CC1=NN(c2ccccc2)C(=O)C1 , please?
Solution: 452 mg/mL

Measured values drawn from paper PMC9863297 for this set.
